Known inhibition of a selection of compounds
# experiment_notes: growth inhibition, single agents and combos, HD-MB03, cell-based, BGB or cisplatin IC20 combos, synergistic combos for chromothripsis tumors (AID 1671455);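 also: 0% = vehicle DMSO and 100% = high DMSO as cytotoxic control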
# measurement_setup: HD-MB03 medulloblastoma cells, at 0.5 µM, hits give high values

query_smiles: O=c1[nH]c([C@@H]2CCCN2)nc2c1oc1ccc(Cl)cc12
units_label: %
inhibition: -12.2
//
query_smiles: COc1cc(C=O)c([N+](=O)[O-])cc1OC
units_label: %
inhibition: -11.8
//
query_smiles: COc1cc2ncnc(-n3nc(-c4ccccn4)nc3N)c2cc1OC
units_label: %
inhibition: -15.7
//
query_smiles: O=C(CCCCCCNC(=O)c1cnc(N(c2ccccc2)c2ccccc2Cl)nc1)NO
units_label: %
inhibition: 7.2
//
query_smiles: NC(=O)c1nc(F)c[nH]c1=O
units_label: %
inhibition: 0.58
//
query_smiles: CS(=O)(=O)c1ccc(-c2nnc(/C=C/c3nnc(-c4ccc(C#N)cc4)o3)n2-c2ccccc2Cl)nc1
units_label: %
inhibition: 11.5
//
query_smiles: Nc1nc(OCc2cc(Br)cs2)c2[nH]cnc2n1
units_label: %
inhibition: -4.96
//
query_smiles: CC(=O)Nc1nc(C)c(-c2ccc(Cl)c(S(=O)(=O)NCCO)c2)s1
units_label: %
inhibition: 14.3
//
query_smiles: COc1ccc(-c2nc(N3CCOCC3)c3sc(CN(C)c4ncc(C(=O)NO)cn4)cc3n2)cn1
units_label: %
inhibition: 99.8
//
query_smiles: O=C(O)CO.[NH2-].[NH2-].[Pt+2]
units_label: %
inhibition: -6.84
//
query_smiles: O=C(/C=C/c1cccc(S(=O)(=O)Nc2ccccc2)c1)NO
units_label: %
inhibition: 86.6
//
query_smiles: O=C(COc1cccc2c(=O)[nH]ccc12)c1ccccc1
units_label: %
inhibition: -12.7
//
query_smiles: COc1ccc(C(=O)C2CCN(CC(=O)N(Cc3nc4c(c(=O)[nH]3)COCC4)CC3CC3)CC2)cc1
units_label: %
inhibition: -6.43
//
query_smiles: Cc1ccc2nc(NCCN)c3ncc(C)n3c2c1
units_label: %
inhibition: -5.33
//
query_smiles: C[C@]12CCCN1CC1=NNC(=O)c3cc(F)cc4[nH]c2c1c34
units_label: %
inhibition: -2.5
//
query_smiles: O=C(/C=C/c1ccc(CN(CCO)CCc2c[nH]c3ccccc23)cc1)NO
units_label: %
inhibition: 99.8
//
query_smiles: Nc1ncnc2c1c(-c1cnc3[nH]ccc3c1)nn2C1CCCC1
units_label: %
inhibition: 28.9
//
query_smiles: COc1ccc(-n2c(SCCCN3C(=O)c4cccc5cccc(c45)C3=O)nnc2-c2ccncc2)cc1
units_label: %
inhibition: -0.19

###

# experiment_notes: drug combination growth inhibition, ovarian cancer – cell-based, oncology-focused library, rucaparib conditional, profiling panel (AID 1508598)
# measurement_setup: patient-derived ovarian cancer cells, CellTiter-Glo viability, 144 h; at 1.25 µM; OCI-P5x cells; with rucaparib 20 µM; hits give low values; 100% = cells with rucaparib alone

query_smiles: Cc1c(NC(=O)OC[C@@H]2COCCN2)cn2ncnc(Nc3ccc4c(cnn4Cc4cccc(F)c4)c3)c12
viability (%): 96.9
--
query_smiles: Cc1ccc([C@@H]2O[C@H](CO)[C@@H](O)[C@H](O)[C@H]2O)cc1Cc1ccc(-c2ccc(F)cc2)s1
viability (%): 109
--
query_smiles: CCN(CC)CCCCNc1ncc2cc(-c3cc(OC)cc(OC)c3)c(NC(=O)NC(C)(C)C)nc2n1
viability (%): 100
--
query_smiles: Cc1ccc(C(=O)N(CCCN)[C@@H](c2oc3cc(Cl)ccc3c(=O)c2Cc2ccccc2)C(C)C)cc1
viability (%): 48.4
--
query_smiles: Cn1cc(-c2ccc3c(c2)CCN3C(=O)Cc2cccc(C(F)(F)F)c2)c2c(N)ncnc21
viability (%): 74.9
--
query_smiles: NC(=O)Nc1cc(-c2cccc(F)c2)sc1C(=O)N[C@H]1CCCNC1
viability (%): 13.7
--
query_smiles: Cc1ccc(S(=O)(=O)Nc2nc3ccccc3nc2Nc2ccc3nsnc3c2)cc1
viability (%): 110
--
query_smiles: Nc1cc(C(F)(F)F)c(-c2cc(N3CCOCC3)nc(N3CCOCC3)n2)cn1
viability (%): 69.7
--
query_smiles: O=C(Nc1cccnc1)N1CCC(Cc2cccc(Oc3ccc(C(F)(F)F)cn3)c2)CC1
viability (%): 100
